Note to self: these molecules have pKi reported for the protein given by its sequence in various publications.
Target protein (sequence): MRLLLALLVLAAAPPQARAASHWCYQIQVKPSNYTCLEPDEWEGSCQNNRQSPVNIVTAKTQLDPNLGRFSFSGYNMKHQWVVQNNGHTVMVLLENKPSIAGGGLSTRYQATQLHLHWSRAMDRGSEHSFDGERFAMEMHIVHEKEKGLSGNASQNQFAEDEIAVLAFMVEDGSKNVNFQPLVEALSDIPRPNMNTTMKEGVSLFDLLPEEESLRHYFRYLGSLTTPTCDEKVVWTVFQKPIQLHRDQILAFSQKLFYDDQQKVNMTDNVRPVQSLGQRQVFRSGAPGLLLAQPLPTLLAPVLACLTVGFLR
// field semantics: pKi = negative decimal log of concentration (mol/L)

{"MOLECULE": "C[C@H](CCC(=O)Nc1ccc(S(N)(=O)=O)cc1)[C@H]1CC[C@H]2[C@@H]3[C@H](O)C[C@@H]4C[C@H](O)CC[C@]4(C)[C@H]3C[C@H](O)[C@]12C", "TARGET DESC": "the protein given by its sequence", "VALUE TYPE": "pKi", "VALUE OBSERVED": 6.37}
{"MOLECULE": "C[C@H](CCC(=O)Nc1ccc(S(N)(=O)=O)cc1I)[C@H]1CC[C@H]2[C@@H]3CC[C@@H]4C[C@H](O)CC[C@]4(C)[C@H]3C[C@H](O)[C@]12C", "TARGET DESC": "the protein given by its sequence", "VALUE TYPE": "pKi", "VALUE OBSERVED": 6.96}
{"MOLECULE": "CN(C)CCOC(=O)c1ccc(S(=O)(=O)/N=c2/sc(S(N)(=O)=O)nn2C)cc1", "TARGET DESC": "the protein given by its sequence", "VALUE TYPE": "pKi", "VALUE OBSERVED": 7.85}

Give the measured pKi of `NS(=O)(=O)c1ccc(NC(=O)c2c(F)c(F)cc(F)c2F)c(Br)c1` .
7.30

Give the measured pKi of `Cn1nc(S(N)(=O)=O)s/c1=N/S(=O)(=O)c1ccc(N)cc1` .
9.10

Give the measured pKi of `Cc1cc(-c2ccccc2)cc(C)[n+]1CC(=O)NNc1ccc(S(N)(=O)=O)cc1` .
6.51

Give the measured pKi of `C[C@H](CCC(=O)OCCOc1ccc2nc(S(N)(=O)=O)sc2c1)[C@H]1CC[C@H]2[C@@H]3[C@H](O)C[C@@H]4C[C@H](O)CC[C@]4(C)[C@H]3CC[C@]12C` .
8.05

Give the measured pKi of `NS(=O)(=O)c1ccc(NC(=O)C(F)(F)C(F)(F)C(F)(F)C(F)(F)C(F)(F)C(F)(F)C(F)(F)C(F)(F)F)cc1` .
6.07

Give the measured pKi of `NCCCC(=O)NCCc1ccc(S(N)(=O)=O)cc1` .
7.21

Give the measured pKi of `Cc1cc(-c2ccccc2)cc(C)[n+]1CC(=O)Nc1ccc(S(N)(=O)=O)cc1Br` .
7.46

Give the measured pKi of `O=S(=O)(NO)c1ccccc1` .
7.13

Give the measured pKi of `NCC(=O)NCC(=O)Nc1ccc(S(N)(=O)=O)cc1I` .
7.15

---

Note to self: these compounds have Ki reported for Carbonic anhydrase 4 (Bos taurus, UniProt Q95323) in various publications.
TARGET DESC: Carbonic anhydrase 4 (Bos taurus, UniProt Q95323)
Sequence (Q95323 whole entry): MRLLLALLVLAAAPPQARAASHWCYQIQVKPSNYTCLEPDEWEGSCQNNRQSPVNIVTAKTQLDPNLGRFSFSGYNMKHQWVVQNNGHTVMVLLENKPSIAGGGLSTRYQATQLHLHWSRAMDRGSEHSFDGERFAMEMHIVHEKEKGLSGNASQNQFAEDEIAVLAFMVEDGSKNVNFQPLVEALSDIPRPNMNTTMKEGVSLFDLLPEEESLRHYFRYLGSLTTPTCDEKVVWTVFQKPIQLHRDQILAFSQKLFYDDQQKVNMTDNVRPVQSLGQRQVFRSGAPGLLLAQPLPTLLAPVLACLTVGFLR
Please use Yes for Ki under 40 nM and No for everything else, ties included.

A selection of reference data follows.
{"COMPOUND": "CSCCC(/N=C(\\S)Nc1ccc(S(N)(=O)=O)cc1)C(=O)O (centres undefined)", "CLASS NAME": "Yes"}
{"COMPOUND": "NS(=O)(=O)c1ccc(NC(=O)CNCC(=O)O)c(Cl)c1", "CLASS NAME": "No"}
{"COMPOUND": "Cc1cc(C)[n+](CC(=O)OCc2ccc(S(N)(=O)=O)cc2)c(C)c1", "CLASS NAME": "No"}

Is Ki of `C[C@H](CCC(=O)Nc1cccc(S(N)(=O)=O)c1)[C@H]1CC[C@H]2[C@@H]3CC[C@@H]4C[C@H](O)CC[C@]4(C)[C@H]3C[C@H](O)[C@]12C` strictly below 40 nM?
No

Is Ki of `NCC(=O)NCC(=O)Nc1nnc(S(N)(=O)=O)s1` strictly below 40 nM?
No

---

Protein target, amino acids: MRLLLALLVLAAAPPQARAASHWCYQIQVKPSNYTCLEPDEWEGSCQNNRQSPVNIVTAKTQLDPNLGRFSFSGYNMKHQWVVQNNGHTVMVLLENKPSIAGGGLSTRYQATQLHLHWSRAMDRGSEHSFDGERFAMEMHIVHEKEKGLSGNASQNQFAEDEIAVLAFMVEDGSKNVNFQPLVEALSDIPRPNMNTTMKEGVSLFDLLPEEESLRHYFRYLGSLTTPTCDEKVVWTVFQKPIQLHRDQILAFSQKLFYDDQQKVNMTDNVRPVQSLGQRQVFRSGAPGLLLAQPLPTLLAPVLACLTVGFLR
Note to self: these molecules have pKi reported for the protein given by its sequence in various publications.
// field semantics: pKi = negative decimal log of concentration (mol/L)

In the examples that follow, each entry is paired with its recorded pKi.
{"MOLECULE SMILES": "Cc1cc(C)[n+](CC(=O)Nc2ccc(S(=O)(=O)Nc3nnc(S(N)(=O)=O)s3)cc2)c(C)c1", "TARGET DESC": "the protein given by its sequence", "pKi": 7.92}
{"MOLECULE SMILES": "NS(=O)(=O)c1cccc(NC(=O)c2c(F)c(F)cc(F)c2F)c1", "TARGET DESC": "the protein given by its sequence", "pKi": 6.37}
{"MOLECULE SMILES": "NS(=O)(=O)c1cc(S(N)(=O)=O)c(NC(=O)CNCC(=O)O)cc1Cl", "TARGET DESC": "the protein given by its sequence", "pKi": 6.84}
{"MOLECULE SMILES": "C[C@H](CCC(=O)OCc1ccc(S(N)(=O)=O)cc1)[C@H]1CC[C@H]2[C@@H]3CC[C@@H]4C[C@H](O)CC[C@]4(C)[C@H]3C[C@H](O)[C@]12C", "TARGET DESC": "the protein given by its sequence", "pKi": 6.46}
{"MOLECULE SMILES": "CC(C)c1cc(-c2ccccc2)cc(C(C)C)[n+]1CC(=O)Nc1ccc(S(N)(=O)=O)cc1Br", "TARGET DESC": "the protein given by its sequence", "pKi": 7.15}
{"MOLECULE SMILES": "NS(=O)(=O)c1nc2ccc(OC(=O)CNCC(=O)O)cc2s1", "TARGET DESC": "the protein given by its sequence", "pKi": 7.85}
{"MOLECULE SMILES": "C[C@H](CCC(=O)Nc1cccc(S(N)(=O)=O)c1)[C@H]1CC[C@H]2[C@@H]3C(=O)C[C@@H]4CC(=O)CC[C@]4(C)[C@H]3CC(=O)[C@]12C", "TARGET DESC": "the protein given by its sequence", "pKi": 6.36}

Give the measured pKi of `NS(=O)(=O)c1nc2ccc(OCCOS(=O)(=O)C(F)(F)C(F)(F)C(F)(F)C(F)(F)F)cc2s1` .
8.22

---

Protein target, amino acids: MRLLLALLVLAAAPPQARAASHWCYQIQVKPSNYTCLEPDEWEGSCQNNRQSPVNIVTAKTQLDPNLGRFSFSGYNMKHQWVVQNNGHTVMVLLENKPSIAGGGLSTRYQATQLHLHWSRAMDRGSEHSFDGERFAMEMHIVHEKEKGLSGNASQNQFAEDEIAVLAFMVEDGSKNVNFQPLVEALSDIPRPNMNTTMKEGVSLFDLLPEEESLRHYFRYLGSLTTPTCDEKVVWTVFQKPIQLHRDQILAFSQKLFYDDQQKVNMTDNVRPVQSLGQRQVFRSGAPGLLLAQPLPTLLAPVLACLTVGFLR
Note to self: these molecules have pKi reported for the protein given by its sequence in various publications.
// field semantics: pKi = negative decimal log of concentration (mol/L)

In the examples that follow, each entry is paired with its recorded pKi.
{"MOLECULE": "NS(=O)(=O)c1cc(S(N)(=O)=O)c(NC(=O)CN(CCOCCOCCN(CC(=O)O)CC(=O)Nc2c(S(N)(=O)=O)cc(S(N)(=O)=O)c(Cl)c2Cl)CC(=O)O)c(Cl)c1Cl", "pKi": 7.68}
{"MOLECULE": "NS(=O)(=O)c1ccc(N/C(S)=N/C(Cc2c[nH]cn2)C(=O)O)cc1 (configuration not stated)", "pKi": 7.82}
{"MOLECULE": "NS(=O)(=O)c1nc2ccc(NS(=O)(=O)C(F)(F)C(F)(F)C(F)(F)C(F)(F)C(F)(F)C(F)(F)C(F)(F)C(F)(F)F)cc2s1", "pKi": 8.15}
{"MOLECULE": "NS(=O)(=O)c1ccc(COC(=O)CN(CC(=O)O)CC(=O)O)cc1", "pKi": 6.46}
{"MOLECULE": "CC(C)c1cc(-c2ccccc2)cc(C(C)C)[n+]1CC(=O)Nc1ccc(S(N)(=O)=O)cc1", "pKi": 6.74}

Give the measured pKi of `Cn1nc(S(N)(=O)=O)s/c1=N/C(=O)CN(CCN(CCN(CC(=O)O)CC(=O)/N=c1/sc(S(N)(=O)=O)nn1C)CC(=O)O)CC(=O)O` .
8.30

Give the measured pKi of `NS(=O)(=O)c1nc2ccc(OC(=O)C(F)(F)C(F)(F)C(F)(F)C(F)(F)C(F)(F)C(F)(F)C(F)(F)C(F)(F)F)cc2s1` .
7.85
